Data origin, for the record: patent US8952024B2

# Tested on: giant foxtail (Setaria faberii)
# measurement protocol: Test B pre-/postemergence plant response
# Type: in vivo
# measurement conditions: Preemergence, 62 g ai/ha; scale 0 to 100 (0 no effect, 100 complete control)
value kind: Plant response rating, Foxtail, Giant

[[record]]
compound = "O=C1CCCC(O)=C1C(=O)c1cnc(-c2ccccc2)n(CC2CCCO2)c1=O (stereo not drawn)"
value_kind = "Plant response rating, Foxtail, Giant"
result = 0

[[record]]
compound = "CCCc1ncc(C(=O)C2=C(O)CCCC2=O)c(=O)n1CC1CCCO1 (stereo not drawn)"
value_kind = "Plant response rating, Foxtail, Giant"
result = 0


Given the compound CCCCc1ncc(C(=O)C2=C(O)CCCC2=O)c(=O)n1-c1ccc(C)cc1 , what is its reported Plant response rating, Foxtail, Giant?
0

Given the compound CCc1ccc(-n2c(-c3ccccc3)ncc(C(=O)C3=C(O)CCCC3=O)c2=O)cc1 , what is its reported Plant response rating, Foxtail, Giant?
0

Given the compound O=C1CCCC(O)=C1C(=O)c1cnc(-c2ccsc2)n(-c2ccccc2)c1=O , what is its reported Plant response rating, Foxtail, Giant?
40

Given the compound CCCCc1ncc(C(=O)C2=C(O)CCCC2=O)c(=O)n1-c1cccc(C)c1 , what is its reported Plant response rating, Foxtail, Giant?
0

* * *

# Tested on: johnsongrass (Sorghum halepense)
# measurement protocol: Test B pre-/postemergence plant response
# Type: in vivo
# measurement conditions: Postemergence, 250 g ai/ha; scale 0 to 100 (0 no effect, 100 complete control); 13 to 15 days
value kind: Plant response rating, Johnsongrass
// return just the number, without any unit appended

Given the compound O=C(C1=C(O)C2CCC(C2)C1=O)c1cnc(-c2ccsc2)n(CC2CCCO2)c1=O (stereo not shown) [Compound 229] , what is its reported Plant response rating, Johnsongrass?
100

* * *

# Test system: goosegrass (Eleusine indica)
# measurement protocol: Test B pre-/postemergence plant response
# Type: in vivo
# measurement conditions: 31 g ai/ha, postemergence; scale 0 to 100, 0 is no effect, 100 is complete control
value kind: Plant response rating, Goosegrass
// return just the number, without any unit appended

[[record]]
compound = "CCCc1ncc(C(=O)C2=C(O)CCCC2=O)c(=O)n1-c1ccccc1C"
value_kind = "Plant response rating, Goosegrass"
numeric_value = 65

[[record]]
compound = "CCCc1ncc(C(=O)C2=C(O)CCCC2=O)c(=O)n1CC1CCCO1 (centres unmarked)"
value_kind = "Plant response rating, Goosegrass"
numeric_value = 65


Given the compound CCCn1c(-c2ccc(F)cc2)ncc(C(=O)C2=C(O)CCCC2=O)c1=O , what is its reported Plant response rating, Goosegrass?
55

Given the compound O=C1CCCC(O)=C1C(=O)c1cnc(-c2ccsc2)n(-c2ccccc2)c1=O , what is its reported Plant response rating, Goosegrass?
65

Given the compound CC(C)n1c(-c2ccccc2)ncc(C(=O)C2=C(O)CCCC2=O)c1=O , what is its reported Plant response rating, Goosegrass?
65

Given the compound COCCn1c(-c2ccccc2)ncc(C(=O)C2=C(O)CCCC2=O)c1=O , what is its reported Plant response rating, Goosegrass?
70

Given the compound CC(C)CC(=O)OC1=C(C(=O)c2cnc(-c3ccccc3)n(-c3ccccc3)c2=O)C(=O)CCC1 , what is its reported Plant response rating, Goosegrass?
75

Given the compound CCCCn1c(-c2ccccc2)ncc(C(=O)C2=C(O)CCCC2=O)c1=O , what is its reported Plant response rating, Goosegrass?
70

Given the compound Cc1ccccc1-c1ncc(C(=O)C2=C(O)CCCC2=O)c(=O)n1-c1ccccc1 , what is its reported Plant response rating, Goosegrass?
75

Given the compound Cn1c(-c2ccccc2)ncc(C(=O)C2=C(O)CCCC2=O)c1=O , what is its reported Plant response rating, Goosegrass?
45

Given the compound O=C1CCCC(O)=C1C(=O)c1cnc(-c2cccc(Cl)c2)n(-c2ccc(Cl)cc2)c1=O , what is its reported Plant response rating, Goosegrass?
80

* * *

Readings of Sunflower plant response rating for the listed compounds
# Tested on: sunflower (common oilseed sunflower, Helianthus annuus)
# measurement protocol: Test B pre-/postemergence plant response
# Format: in vivo
# measurement conditions: Preemergence, 125 g ai/ha; 0 to 100 scale
// return just the number, without any unit appended

Below: 3 compounds and their reported Sunflower plant response rating.
[[record]]
smiles_code = "Cc1ccc(F)cc1-n1c(-c2ccccc2)ncc(C(=O)C2=C(O)CCCC2=O)c1=O"
system_name = "sunflower (common oilseed sunflower, Helianthus annuus)"
numeric_value = 75

[[record]]
smiles_code = "O=C1CCCC(O)=C1C(=O)c1cnc(-c2ccccc2)n(-c2cccc(Br)c2)c1=O"
system_name = "sunflower (common oilseed sunflower, Helianthus annuus)"
numeric_value = 25

[[record]]
smiles_code = "O=C1CCCC(O)=C1C(=O)c1cnc(-c2ccccc2)n(-c2ccccc2F)c1=O"
system_name = "sunflower (common oilseed sunflower, Helianthus annuus)"
numeric_value = 90


Could you now consider this next compound?
Given the compound Cc1cccc(Cl)c1-n1c(-c2ccccc2)ncc(C(=O)C2=C(O)CCCC2=O)c1=O , what is its reported Sunflower plant response rating?
0

* * *

# Tested on: woolly cupgrass (Eriochloa villosa)
# measurement protocol: Test B pre-/postemergence plant response
# Type: in vivo
# measurement conditions: Preemergence, 62 g ai/ha; scale 0 to 100 (0 no effect, 100 complete control)
value kind: Plant response rating, Cupgrass, Woolly
// return just the number, without any unit appended

Below: 3 compounds and their reported Plant response rating, Cupgrass, Woolly.
[[record]]
compound = "CCCCc1ncc(C(=O)C2=C(O)CCCC2=O)c(=O)n1-c1ccccc1"
numeric_value = 0

[[record]]
compound = "CCCc1ncc(C(=O)C2=C(O)CCCC2=O)c(=O)n1-c1ccccc1C"
numeric_value = 20

[[record]]
compound = "CCCCc1ncc(C(=O)C2=C(O)CCCC2=O)c(=O)n1-c1cccc(C)c1"
numeric_value = 0


Given the compound CCCCc1ncc(C(=O)C2=C(O)CCCC2=O)c(=O)n1-c1ccc(C)cc1 , what is its reported Plant response rating, Cupgrass, Woolly?
0

Given the compound CCCCn1c(-c2cc(F)cc(F)c2)ncc(C(=O)C2=C(O)C3CCC(C3)C2=O)c1=O (stereo not drawn) , what is its reported Plant response rating, Cupgrass, Woolly?
70

Given the compound Cc1cc(-n2c(-c3ccccc3)ncc(C(=O)C3=C(O)CCCC3=O)c2=O)ccc1F , what is its reported Plant response rating, Cupgrass, Woolly?
55

* * *

# Tested on: wheat (Triticum aestivum)
# measurement protocol: Test B pre-/postemergence plant response
# Type: in vivo
# measurement conditions: Postemergence, 250 g ai/ha; scale 0 to 100 (0 no effect, 100 complete control); 13 to 15 days
Readings of Plant response rating, Wheat for the listed molecules
// return just the number, without any unit appended

Below: 3 molecules and their reported Plant response rating, Wheat.
[[record]]
smiles_code = "COc1ccc(-n2c(-c3ccccc3)ncc(C(=O)C3=C(O)CCCC3=O)c2=O)cc1OC"
value_kind = "Plant response rating, Wheat"
numeric_value = 0

[[record]]
smiles_code = "CCc1ccccc1-n1c(-c2ccccc2)ncc(C(=O)C2=C(O)CCCC2=O)c1=O"
value_kind = "Plant response rating, Wheat"
numeric_value = 80

[[record]]
smiles_code = "O=C1CCCC(O)=C1C(=O)c1cnc(-c2ccc(F)cc2)n(C2CCCCC2)c1=O"
value_kind = "Plant response rating, Wheat"
numeric_value = 40


Given the molecule COCCn1c(-c2cccc(Cl)c2)ncc(C(=O)C2=C(O)CCCC2=O)c1=O , what is its reported Plant response rating, Wheat?
10

* * *

# Test system: umbrella sedge (Cyperus difformis)
# measurement protocol: Test B flooded paddy test
# Type: in vivo
# measurement conditions: Flood (flooded paddy test), 62 g ai/ha; scale of 0 to 100 where 0 is no effect and 100 is complete control; 13 to 15 days
value kind: Plant response rating, Sedge, Umbrella
// return just the number, without any unit appended

Below: 3 molecules and their reported Plant response rating, Sedge, Umbrella.
[[record]]
smiles_code = "CCCn1c(-c2cccc(Br)c2)ncc(C(=O)C2=C(O)CCCC2=O)c1=O"
value_kind = "Plant response rating, Sedge, Umbrella"
numeric_value = 80

[[record]]
smiles_code = "COCCn1c(-c2cccc(Cl)c2)ncc(C(=O)C2=C(O)CCCC2=O)c1=O"
value_kind = "Plant response rating, Sedge, Umbrella"
numeric_value = 40

[[record]]
smiles_code = "Cn1c(-c2ccccc2)ncc(C(=O)C2=C(O)CCCC2=O)c1=O"
value_kind = "Plant response rating, Sedge, Umbrella"
numeric_value = 30


Given the molecule Cc1ccc(C)c(-n2c(-c3ccccc3)ncc(C(=O)c3cnoc3C3CC3)c2=O)c1 , what is its reported Plant response rating, Sedge, Umbrella?
30

* * *

Readings of Barnyardgrass plant response rating for the listed molecules
# System: barnyardgrass (Echinochloa crus-galli)
# measurement protocol: Test B flooded paddy test
# Assay type: in vivo
# measurement conditions: Flood, 31 g ai/ha; scale 0 to 100 (0 no effect, 100 complete control)
// return just the number, without any unit appended

Below: 3 molecules and their reported Barnyardgrass plant response rating.
[[record]]
molecule = "CCn1c(-c2ccccc2)ncc(C(=O)C2=C(O)C3CCC(C3)C2=O)c1=O (stereo not shown) [Compound 239]"
value_kind = "Barnyardgrass plant response rating"
numeric_value = 0

[[record]]
molecule = "CCCn1c(-c2cc(F)cc(F)c2)ncc(C(=O)C2=C(O)CCCC2=O)c1=O [Compound 152]"
value_kind = "Barnyardgrass plant response rating"
numeric_value = 15

[[record]]
molecule = "CCc1cccc(-c2ncc(C(=O)C3=C(O)CCCC3=O)c(=O)n2C2CCCCC2)c1 [Compound 194]"
value_kind = "Barnyardgrass plant response rating"
numeric_value = 0


Could you now consider this next molecule?
Given the molecule O=C1CCCC(O)=C1C(=O)c1cnc(-c2ccco2)n(-c2ccccc2)c1=O [Compound 76] , what is its reported Barnyardgrass plant response rating?
0
